These compounds were tested on Dihydrofolate reductase (Rattus norvegicus, UniProt Q920D2); IC50 is the recorded read-out.
Sequence (Q920D2 whole entry): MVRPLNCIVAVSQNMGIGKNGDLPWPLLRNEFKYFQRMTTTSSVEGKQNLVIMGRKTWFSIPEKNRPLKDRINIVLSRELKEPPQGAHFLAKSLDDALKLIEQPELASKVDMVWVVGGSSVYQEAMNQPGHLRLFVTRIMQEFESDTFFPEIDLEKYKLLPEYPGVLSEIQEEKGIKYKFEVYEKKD
Numbers only, in µM.

[[record]]
compound = "COc1cc2c(cc1OC)C(c1cnc(N)nc1N)CC2 (configuration not stated)"
target_under_test = "Dihydrofolate reductase (Rattus norvegicus, UniProt Q920D2)"
measurement_type = "IC50"
result_number = 410


Then this compound:
Query string: Return IC50 measured with Dihydrofolate reductase (Rattus norvegicus, UniProt Q920D2) given this compound: COc1ccc(Cc2cnc(N)nc2N)cc1OC
Result string: 70
